Test system: H929 multiple myeloma tumour line
Measurement Protocol: In vitro cytotoxicity, Microculture Tetrazolium Assay
Type: cell-based
Cond: H929 cells, 48 hours exposure, MTT; read-out: IC50 (μM) MTT H929
Consider the following compounds and their measured log10 IC50 readings.
Units before log transform: µM; reported quantity: IC50; transform: log10.

Worked cases, answers included:
Compound	Experimental System	log10 IC50
CCOCc1nccc(COc2ccccc2C[C@@H](Oc2ncnc3sc(-c4ccc(F)cc4)c(-c4ccc(OCCN5CCN(C)CC5)c(Cl)c4C)c23)C(=O)O)n1 [Example 47]	H929 multiple myeloma tumour line	-2.30
Cc1cccc(C[C@@H](Oc2ncnc3sc(-c4ccco4)c(-c4ccc(OCCN5CCN(C)CC5)c(Cl)c4C)c23)C(=O)O)c1 [Example 347]	H929 multiple myeloma tumour line	-0.60
COc1ccccc1C[C@@H](Oc1ncnc2sc(-c3ccc(F)c(Cl)c3F)c(-c3ccc(OCCN4CCN(C)CC4)c(Cl)c3C)c12)C(=O)O [Example 536]	H929 multiple myeloma tumour line	-0.10
Cc1c(-c2c(-c3ccco3)sc3ncnc(OC(Cc4ccccc4F)C(=O)O)c23)ccc(OCCN2CCN(C)CC2)c1Cl (stereo not drawn) [Example 341]	H929 multiple myeloma tumour line	-0.15
COc1ccc(-c2sc3ncnc(OC(Cc4ccccc4OCc4ccnc(-c5ccccc5OC)n4)C(=O)O)c3c2-c2ccc(OCCN3CCN(C)CC3)c(Cl)c2C)cc1 (single isomer, unassigned) [Example 760]	H929 multiple myeloma tumour line	-2.40

Task item: Recorded log10 IC50 for Cc1c(-c2c(-c3ccc(F)cc3)sc3ncnc(OC(Cc4ccccc4OCc4cnccn4)C(=O)O)c23)ccc(OCC2CCN(C)C2)c1Cl (stereo not drawn) [Example 145] with H929 multiple myeloma tumour line, please?
Reply: -0.53

###

Tested on: H929 multiple myeloma tumour line
Measurement Protocol: In vitro cytotoxicity, Microculture Tetrazolium Assay
Assay type: cell-based
Cond: H929 cells, 48 hours exposure, MTT; read-out: IC50 (μM) MTT H929
Listed molecules paired with reported log10(IC50)
Record value = log10 of IC50 given in µM.

Past entries and their recorded results:
Molecule	log10(IC50)
CCOC(=O)[C@@H](Cc1ccccc1OCc1ccnc(OC)n1)Oc1ncnc2sc(-c3ccc(F)o3)c(-c3ccc(OCCN4CCN(C)CC4)c(Cl)c3C)c12 [Example 625]	-0.21
Cc1c(-c2c(-c3ccc(F)cc3)sc3ncnc(OC(Cc4ccccc4OCc4cnccn4)C(=O)O)c23)ccc(OC2CCCN(C)C2)c1Cl (single isomer, unassigned) [Example 141]	-0.57
CC#Cc1sc2ncnc(O[C@H](Cc3ccccc3OCc3ccnc(-c4ccncc4C)n3)C(=O)O)c2c1-c1ccc(OCCN2CCN(C)CC2)c(Cl)c1C [Example 483]	-2.52

Task item: For COc1ccccc1CC(Oc1ncnc2sc(-c3ccco3)c(-c3ccc(OCC4CCCN4C)c(Cl)c3C)c12)C(=O)O (stereo not drawn) [Example 299] , what is its reported log10(IC50)?
Reply: 0.01

Task item: Fill in: log10(IC50) of CCc1c(-c2c(-c3ccc(F)cc3)sc3ncnc(O[C@H](Cc4ccccc4OCc4ccnc(-c5ccccc5OC)n4)C(=O)O)c23)ccc(OCCN2CCN(C)CC2)c1Cl [Example 741] is ___
Reply: -2.70

Task item: What does the record list as log10(IC50) for Cc1cc(-c2nccc(COc3ccccc3C[C@@H](Oc3ncnc4sc(-c5ccc(F)cc5)c(-c5ccc(OCCN6CCN(C)CC6)c(Cl)c5C)c34)C(=O)O)n2)cnc1C [Example 732] ?
Reply: -1.89
